experiment: yeast display, Sf9 membrane polyspecificity reagent, FACS + sequencing; frameworks hold sequencing errors
Readout kind: polyreactivity (PSR sort gate)

The cases that follow already have their polyreactivity (PSR sort gate) on record.
[[record]]
sequence = "QVQIVESGGGLVQAGGSLRLRCAASGLTFYVYVMGWYRQAPGKEREFVAAISYDGDSTYYADSVKGRFTISRDNAKNTVFFQMNSLIAEDTAVYYCNADRYPYWGYDYWGQGTQVTVSS"
experimental_value = "low polyreactivity"

[[record]]
sequence = "QVQLVESGGGLVQAGGSLRLSCAASGRIFGSYVMGWYRQAPGKVRELVAAISRRGGSTYYADSVKGRFTISRDNAKNTVYLQMNSLKPEDTAVYYCAAEFSPSSNPYDYWGQGTQVTVSS"
experimental_value = "high polyreactivity"

[[record]]
sequence = "QVQLVESGGGLVQAGGSLRLSCAASGRIFYGYTMGWYRQAPGKERELVAAITQRGGNTHYADSVKGRFTISRDNAKNTVYLQMNSLKPEDTAVYYCAAKYYPYVRRVQYYYWGQGTQVTVSS"
experimental_value = "high polyreactivity"

[[record]]
sequence = "QVQLVESGGGLVQAGGRLRLSCAASGRIFERYAMGWYRQAPGKERELVATISTSGGSTYYADSVKGRFTISRDNAKNTVYLQMNSLKPEDTAVYYCAAPYQRRRYYYWGQGTKVTVSS"
experimental_value = "high polyreactivity"


Please indicate polyreactivity (PSR sort gate) recorded for `QGQLVESGGGLVQAGGSLRLSCAASGRIFTYYAMGWYRQAPGKERELVAAISWSGGSTYYADSVKGRFTISRDNAKNTVYLQMNSLKPEDTAVYYCAAVGYAGLPYGLRPNNSGYWGQGTQVTVSS`
low polyreactivity
